Where these numbers come from: patent US9981940B2

# protocol summary: log P by HPLC (OECD Guideline 117), method [b] neutral range
# Format: physicochemical
# settings: HPLC, method [b] neutral range
value type: logP[b]
Just the number, please, no unit attached.

Ask | # query: logP[b] of entry CCCCOc1nn(-c2cc([S+]([O-])CC(F)(F)F)c(C)cc2F)c(=O)n1C1CC1 (stereo not shown) [Example 124]
Reply | 3.20

Ask | Check COCCc1nn(-c2cc(SCC(F)(F)F)c(C)cc2F)c(=O)n1C1CC1 [Example 75] too.
Reply | 2.89

Ask | And for COc1cc(F)c(-n2nc(OCC(F)(F)F)n(C3CC3)c2=O)cc1[S+]([O-])CC(F)(F)F (racemic) [Example 385] ?
Reply | 2.74

Ask | Repeat for the following molecule: Cc1cc(F)c(-n2nc([S+](C)[O-])n(C)c2=O)cc1SCC(F)(F)F (stereo not shown) [Example 232]
Reply | 2.21

Ask | For COc1nn(-c2cc(SCC(F)(F)F)c(Cl)cc2Cl)c(=O)n1C1CC1 [Example 107] then?
Reply | 3.42

Ask | Try the molecule Cc1cc(F)c(-n2nc(-c3cccc(F)c3)n(C3CC3)c2=O)cc1[S+]([O-])CC(F)(F)F (racemic) [Example 70]
Reply | 2.87

Ask | Please give the result for CCn1c([S+](C)[O-])nn(-c2cc(SCC(F)(F)F)c(C)cc2F)c1=O (stereo not shown) [Example 240] too.
Reply | 2.46

Ask | What would you report for CCc1nn(-c2cc([S+]([O-])CC(F)(F)F)c(C)cc2F)c(=O)n1-c1cccnc1 (racemic) [Example 354] ?
Reply | 1.97

Ask | Would you mind doing COC1=CC(=O)N(c2cc([S+]([O-])CC(F)(F)F)c(C)cc2Cl)C1 (stereo not shown) [Example 318] as well?
Reply | 1.94

Ask | Entry Cc1cc(F)c(-n2nc(OC(C)C)n(C3CC3)c2=O)cc1[S+]([O-])CC(F)(F)F (stereo not shown) [Example 100] please
Reply | 2.79

----------
# protocol summary: log P by HPLC (OECD Guideline 117), method [a] acidic range
# Assay type: physicochemical
# settings: HPLC, method [a] acidic range
value type: logP[a]
Lab note: record just the number, no unit beside it.

Ask | For the compound COc1nn(-c2cc([S+]([O-])CC(F)(F)F)c(C)cc2F)c(=O)n1C (stereo not shown) , what logP[a] is on record?
Reply | 1.77

Ask | One more compound: Cc1ccc(-n2nc(OCC(C)(C)C)n(C)c2=O)cc1[S+]([O-])CC(F)(F)F (stereo not shown)
Reply | 3.67

Ask | Try COc1ccc(-n2nc(C(F)(F)F)n(C3CC3)c2=O)cc1[S+]([O-])CC(F)(F)F (stereo not shown) next.
Reply | 3.03

Ask | How about Cc1cc(F)c(-n2nc(SC(F)(F)F)n(C)c2=O)cc1[S+]([O-])CC(F)(F)F (racemic) ?
Reply | 2.65

Ask | Do the same for COc1nn(-c2ccc(Cl)c([S+]([O-])CC(F)(F)F)c2)c(=O)n1C (stereo not shown) please
Reply | 2.54

Ask | Proceed to CCSc1nn(-c2cc([S+]([O-])CC(F)(F)F)c(C)cc2F)c(=O)n1C1CC1 (stereo not shown)
Reply | 2.81

Ask | Next record, please: CCOc1nn(-c2cc([S+]([O-])CC(F)(F)F)c(C)cc2F)c(=O)n1C1CC1 (stereo not shown)
Reply | 2.47

Ask | Proceed to Cc1ccc(-n2nc(OCC(C)C)n(C)c2=O)cc1[S+]([O-])CC(F)(F)F (stereo not shown)
Reply | 3.31

Ask | Entry CCCCc1nn(-c2cc(SCC(F)(F)F)c(C)cc2F)c(=O)o1 please
Reply | 4.35

Ask | Please answer likewise for Cc1cc(F)c(-n2nc(Oc3ccccc3)n(C)c2=O)cc1SCC(F)(F)F
Reply | 3.70
